Molecular target: T1, PCSK9-BP15-His6 (human, UniProt Q8NBP7 31-692, biotin on the BP15 biotin receiving peptide)
T1 construct: It holds a signal peptide (underlined in print); also called WT PCSK9; bio-WT-PCSK9
Experiment: blocking ELISA, LDLR-FC (SEQ ID NO: 8) coated, bio-WT-PCSK9 plus antibody
parameter: IC50 (µg/mL)
Numbers only, in µg/mL.

Input line: Quick one: IC50 for h001-7 (antibody, human IgG1, V domains shown, Variable regions only; also called h001_VH.1A + h001_VL.1B) VH: QVQLVQSGAEVKKPGASVKVSCKASGYTFNDYWMHWVRQAPGQGLEWMGYINPSSGFTKYHQNFKDRVTMTRDTSISTAYMELSRLRSDDTAVYYCARQYDYDEDWYFDVWGQGTTVTVSS VL: DIQMSQSPSSLSASVGDRVTITCKSSQSLLNSRTRKNFLAWYQQKPGKAPKLLIYWASTRESGVPDRFSGSGSGTDFTLTISSLQPEDFATYYCKQSFNLFTFGQGTKLEIK ?
Output line: 0.652

Source listed as patent US20190016825A1.
